- Experimental System: HLA-A*68:02
- Test Details: IEDB peptide-MHC binding, purified MHC/direct/fluorescence; filed as Kd, often an IC50 or EC50 that approximates it; bounds were set here for any values at or beyond the usual limits of such assays
- Condition Set: source organism: Orthohantavirus tulaense
Recorded Endpoint: Kd

[ask] Look up Kd: `VVDALRNIY`
[reply] ≥ 20 µM

====

- Experimental System: HLA-A*02:01
- Test Details: IEDB peptide-MHC binding, purified MHC/competitive/fluorescence; filed as Kd, often an IC50 or EC50 that approximates it; bounds were set here for any values at or beyond the usual limits of such assays
- Condition Set: source organism: Influenza A virus (A/red knot/Delaware/2561/1987(H10N5))
Recorded Endpoint: Kd

[ask] Look up Kd: `VMTDGPANK`
[reply] ≥ 20 µM

The measurements presented in this section are drawn from the Immune Epitope Database (IEDB).
